# Tested on: NCI-H2342
# Protocol text: relative viability (nuclei count vs DMSO), 5 days (fraction); higher = more cells survive
# Test parameters: first compound 0.002 µM
Label y when relative viability < 0.6; otherwise n.

INSERT INTO assay_data (compound, class_assignment) VALUES
  ('CC(=O)O[C@@]12CO[C@@H]1C[C@H](O)[C@@]1(C)C(=O)[C@H](O)C3=C(C)[C@@H](OC(=O)[C@H](O)[C@@H](NC(=O)OC(C)(C)C)c4ccccc4)C[C@@](O)([C@@H](OC(=O)c4ccccc4)[C@H]21)C3(C)C [Docetaxel] + CC(=O)Nc1cccc(-n2c(=O)n(C3CC3)c(=O)c3c(Nc4ccc(I)cc4F)n(C)c(=O)c(C)c32)c1 [Trametinib] (partner 0.02 µM)', 'y'),
  ('CC(=O)O[C@@]12CO[C@@H]1C[C@H](O)[C@@]1(C)C(=O)[C@H](O)C3=C(C)[C@@H](OC(=O)[C@H](O)[C@@H](NC(=O)OC(C)(C)C)c4ccccc4)C[C@@](O)([C@@H](OC(=O)c4ccccc4)[C@H]21)C3(C)C [Docetaxel] + NC(=O)Nc1cc(-c2cccc(F)c2)sc1C(=O)N[C@H]1CCCNC1 [AZD7762] (partner 0.2 µM)', 'y'),
  ('CC(=O)O[C@@]12CO[C@@H]1C[C@H](O)[C@@]1(C)C(=O)[C@H](O)C3=C(C)[C@@H](OC(=O)[C@H](O)[C@@H](NC(=O)OC(C)(C)C)c4ccccc4)C[C@@](O)([C@@H](OC(=O)c4ccccc4)[C@H]21)C3(C)C [Docetaxel] + COc1cc2c(Oc3ccc(NC(=O)C4(C(=O)Nc5ccc(F)cc5)CC4)cc3F)ccnc2cc1OCCCN1CCOCC1 [Foretinib] (partner 0.25 µM)', 'n'),
  ('CC(=O)O[C@@]12CO[C@@H]1C[C@H](O)[C@@]1(C)C(=O)[C@H](O)C3=C(C)[C@@H](OC(=O)[C@H](O)[C@@H](NC(=O)OC(C)(C)C)c4ccccc4)C[C@@](O)([C@@H](OC(=O)c4ccccc4)[C@H]21)C3(C)C [Docetaxel] + N=C(N)NC(=N)NCCc1ccccc1 [Phenformin] (partner 250 µM)', 'n'),
  ('CC(=O)O[C@@]12CO[C@@H]1C[C@H](O)[C@@]1(C)C(=O)[C@H](O)C3=C(C)[C@@H](OC(=O)[C@H](O)[C@@H](NC(=O)OC(C)(C)C)c4ccccc4)C[C@@](O)([C@@H](OC(=O)c4ccccc4)[C@H]21)C3(C)C [Docetaxel] + CCNC(=O)c1noc(-c2cc(C(C)C)c(O)cc2O)c1-c1ccc(CN2CCOCC2)cc1 [Luminespib] (partner 0.01 µM)', 'n');

----------
# Tested on: NCI-H1734
# Protocol text: relative viability (nuclei count vs DMSO), 5 days (fraction); higher = more cells survive
# Test parameters: first compound 50 µM
Label 1 (yes) when relative viability < 0.4; otherwise 0 (no).

INSERT INTO results (compound, class_assignment) VALUES
  ('O=C(O)CCCCC(CCSCc1ccccc1)SCc1ccccc1 (stereo unspecified) [CPI-613] + C[C@@H](Oc1cc(-c2cnn(C3CCNCC3)c2)cnc1N)c1c(Cl)ccc(F)c1Cl [Crizotinib] (partner 1 µM)', '0 (no)'),
  ('O=C(O)CCCCC(CCSCc1ccccc1)SCc1ccccc1 (stereo unspecified) [CPI-613] + CC(=O)Nc1cccc(-n2c(=O)n(C3CC3)c(=O)c3c(Nc4ccc(I)cc4F)n(C)c(=O)c(C)c32)c1 [Trametinib] (partner 0.02 µM)', '0 (no)'),
  ('O=C(O)CCCCC(CCSCc1ccccc1)SCc1ccccc1 (stereo unspecified) [CPI-613] + Nc1ncn([C@H]2C[C@H](O)[C@@H](CO)O2)c(=O)n1 [Decitabine] (partner 2 µM)', '0 (no)'),
  ('O=C(O)CCCCC(CCSCc1ccccc1)SCc1ccccc1 (stereo unspecified) [CPI-613] + Cc1cc(Nc2cc(N3CCN(C)CC3)nc(Sc3ccc(NC(=O)C4CC4)cc3)n2)n[nH]1 [Tozasertib] (partner 0.1 µM)', '1 (yes)'),
  ('O=C(O)CCCCC(CCSCc1ccccc1)SCc1ccccc1 (stereo unspecified) [CPI-613] + CC(=O)c1c(C)c2cnc(Nc3ccc(N4CCNCC4)cn3)nc2n(C2CCCC2)c1=O [Palbociclib] (partner 0.5 µM)', '1 (yes)');
